# AC50 per entry for Cytochrome P450 1A2 (Homo sapiens)

Check out these entries, answers already filled in.
compound=Nc1nc(Cc2ccccc2)nc(Cc2ccccc2)c1-c1ccccc1 result="1 µM (inconclusive)"
compound=Cc1ccc(C(=O)Oc2cc(C)n(C)c(=O)c2)cc1 result="25.1 µM (inconclusive)"
compound=COC(=O)[C@@]1(Cc2ccc(OC)cc2)[C@H]2c3cc(C(=O)N4CCCC4)n(CCc4c[nH]c5cc(F)ccc45)c3C[C@H]2CN1C(=O)c1ccccc1 result="39.8 µM (inconclusive)"
compound=O=C(Nc1ccc2c(c1)OCCO2)c1cc2sccc2n1Cc1ccccc1 result="12.6 µM (inconclusive)"
compound=c1ccc2c(c1)ncn2Cc1nnc2sc(-c3ccc4c(c3)OCO4)nn12 result="1.12 µM (inconclusive)"

Your task in this section: give AC50 for each listed record.
1. COc1ccc(Cc2nnc(NC(=O)c3ccco3)s2)cc1
2. CCOC(=O)N1CCN(C(=O)c2cc(-c3ccc(F)cc3)[nH]c2C)CC1
3. O=C(c1ccc(Cl)cc1)N1CCCC(c2ccccc2)=N1
4. COC(=O)C1=C(N)N(c2ccccc2C(F)(F)F)C2=C(C(=O)CCC2)C1c1ccc2c(c1)OCO2 (stereo not drawn)

11.2 µM (inconclusive)
20 µM (inconclusive)
0.141 µM (inconclusive)
31.6 µM (inconclusive)

I'm hoping you can list AC50 for every compound here, please.
1. COc1ccc(-c2cn3c(C)c(C(=O)NCCN4CCOCC4)sc3n2)cc1
2. COc1ccccc1Cn1nnc2c(=O)[nH]c(C3CCN(C(=O)c4ccc(C)cc4)CC3)nc21
3. COc1ccc(NCc2nnc(SCc3ccccc3)n2-c2ccc(OC)cc2)cc1
4. Cc1ccccc1-c1cncnc1NCCN1CCOCC1
5. COc1ccccc1NC(=O)CN1CCN(CC(=O)Nc2ccc(OCc3ccccc3)cc2)CC1
6. CCN(C1CCCCC1)S(=O)(=O)c1ccc(S(=O)(=O)NCc2ccncc2)cc1
7. Cn1cccc1C(=O)N1CCC2(CC1)CCN(c1ccncc1)CC2

1: 0.126 µM (inconclusive); 2: 25.1 µM (inconclusive); 3: 17.8 µM (inconclusive); 4: 15.8 µM (inconclusive); 5: 10 µM (inconclusive); 6: 15.8 µM (inconclusive); 7: 15.8 µM (inconclusive)

Each of the following entries comes with a recorded value; kindly state AC50 for each.
1. CC(NC(=O)c1ccccc1)c1nc2ccccc2n1Cc1ccccc1F (stereo not drawn)
2. COc1cccc(Cn2c(=O)c(-c3cccs3)nc3cnc(N4CCN(C)CC4)nc32)c1
3. O=C(CN1CCN(C2CCCCC2)CC1)NCCC1=CCCCC1
4. C[C@@H](C(=O)Nc1ccc2ccccc2c1)[C@@H]1C[C@@]1(C)[C@@H](NS(=O)(=O)c1ccc(-c2ccccc2)cc1)c1ccccc1
5. CC[C@H](c1ccc(O)cc1)[C@@H](CC)c1ccc(O)cc1 [HEXESTROL]
6. CCOc1ccccc1C1C(C(N)=O)=C(C)Nc2nc(-c3ccc(OC)cc3)nn21 (stereo not drawn)

1. 28.2 µM (inconclusive)
2. 5.01 µM (inconclusive)
3. 20 µM (inconclusive)
4. 12.6 µM (inconclusive)
5. 12.6 µM (inconclusive)
6. 15.8 µM (inconclusive)

Lookup: AC50 / Cytochrome P450 1A2 (Homo sapiens) / O=C(c1ccncc1)N1CCC2(CC1)CCN(c1cccc(-c3ccccc3)c1)CC2
20 µM (inconclusive)
